Origin of measurements: patent EP0311632B1

method-summary: Solubility of N-alkyl pyrrolidones, 10% by weight in various liquids
Type: physicochemical
assay-conditions: Stoddard Solvent, 25°C ± 1°C
measured-metric: 10% PRODUCT SOLUBILITY

smiles_text=CCCCCCCCN1CCCC1=O measured_metric="10% PRODUCT SOLUBILITY" result=S**
smiles_text=CCCCCCCCCCN1CCCC1=O measured_metric="10% PRODUCT SOLUBILITY" result=S
smiles_text=CCCCCCCCCCCCCCN1CCCC1=O measured_metric="10% PRODUCT SOLUBILITY" result=S
smiles_text=CCCCCCCCCCCCN1CCCC1=O measured_metric="10% PRODUCT SOLUBILITY" result=PS
